TARGET_OF_ASSAY: α2β3γ2 GABAARs (Homo sapiens, UniProt P18507+P28472+P47869)
Construct: Shanghai Genechem Co.,Ltd (γ2 plasmid)
Sequence (P47869 29-451): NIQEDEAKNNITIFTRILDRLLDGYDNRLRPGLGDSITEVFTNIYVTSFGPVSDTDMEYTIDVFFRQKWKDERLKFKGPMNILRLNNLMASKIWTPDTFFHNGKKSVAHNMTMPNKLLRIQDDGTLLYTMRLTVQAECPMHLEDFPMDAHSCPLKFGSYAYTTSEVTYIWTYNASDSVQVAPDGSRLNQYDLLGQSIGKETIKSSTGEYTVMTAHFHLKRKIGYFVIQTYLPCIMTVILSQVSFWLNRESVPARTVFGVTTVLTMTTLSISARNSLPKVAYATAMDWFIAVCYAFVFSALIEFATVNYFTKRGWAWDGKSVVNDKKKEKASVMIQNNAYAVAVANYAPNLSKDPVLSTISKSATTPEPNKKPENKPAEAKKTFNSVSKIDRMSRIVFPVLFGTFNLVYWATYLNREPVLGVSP
Sequence (P28472 26-473): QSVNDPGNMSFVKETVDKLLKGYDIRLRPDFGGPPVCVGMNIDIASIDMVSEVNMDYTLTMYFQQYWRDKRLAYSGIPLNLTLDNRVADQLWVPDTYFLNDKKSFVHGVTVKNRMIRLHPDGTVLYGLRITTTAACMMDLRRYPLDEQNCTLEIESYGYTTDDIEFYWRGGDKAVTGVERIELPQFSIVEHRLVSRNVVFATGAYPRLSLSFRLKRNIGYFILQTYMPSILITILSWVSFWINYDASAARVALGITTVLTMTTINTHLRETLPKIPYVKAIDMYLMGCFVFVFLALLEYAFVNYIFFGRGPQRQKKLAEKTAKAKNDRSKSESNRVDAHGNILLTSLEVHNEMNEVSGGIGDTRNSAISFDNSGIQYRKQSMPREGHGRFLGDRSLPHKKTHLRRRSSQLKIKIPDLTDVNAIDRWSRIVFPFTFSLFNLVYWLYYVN
Sequence (P18507 40-475): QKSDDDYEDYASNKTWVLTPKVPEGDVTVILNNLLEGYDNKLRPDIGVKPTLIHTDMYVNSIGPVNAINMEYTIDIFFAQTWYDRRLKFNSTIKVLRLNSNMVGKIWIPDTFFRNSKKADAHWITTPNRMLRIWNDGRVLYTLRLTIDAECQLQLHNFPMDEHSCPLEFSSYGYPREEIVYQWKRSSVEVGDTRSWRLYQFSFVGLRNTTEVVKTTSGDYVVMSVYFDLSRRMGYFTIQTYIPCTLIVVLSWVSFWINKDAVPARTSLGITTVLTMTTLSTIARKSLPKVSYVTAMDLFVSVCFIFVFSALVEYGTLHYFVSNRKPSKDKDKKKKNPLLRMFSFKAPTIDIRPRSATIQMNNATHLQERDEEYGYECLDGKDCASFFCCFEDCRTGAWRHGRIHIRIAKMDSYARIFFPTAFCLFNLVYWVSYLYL
ASSAY_EXPLANATION: Potentiation of GABA-evoked currents, whole-cell patch-clamp in HEK293 cells transiently expressing recombinant GABAARs
RECORDED_CONDITIONS: α2β3γ2, n = 8
ENDPOINT_NAME: EC50 (nM)
Give bare numbers, in nM.

[in] Please give the measured EC50 for this compound: CC1(C)C2CCC1(C)C(OC(=O)c1ccc(NCc3ccccc3O)cc1O)C2 (stereo not shown) [ZL006-05B]
[out] 2.83
